Where do these numbers come from? They come from patent US10875874B2.

Systolic pressure values by entry
- Test system: spontaneously hypertensive rats (SHR)
- ASSAY_NAME: Caudal artery systolic pressure of spontaneously hypertensive rats, single administration
- Format: in vivo, rat
- TEST_CONTEXT: 60 mg/kg intragastric single administration, 120 min, x ± s, n = 8
ENDPOINT: Systolic pressure (mmHg)

* C[C@@H]1C(=O)O[C@H]2[C@H](O)[C@@]34C5C[C@@H](C(C)(C)C)C36[C@@H](OC(=O)[C@@H]6OC(=O)[C@H](c3ccccc3Cl)N3CCc6sccc6C3)O[C@@]4(C(=O)O5)[C@@]12O (stereo partly drawn) [BL] | 152.04
* Cc1nc(C)c(CO[C@H]2C(=O)O[C@H]3O[C@]45C(=O)OC6C[C@@H](C(C)(C)C)C32[C@@]64[C@@H](O)[C@@H]2OC(=O)[C@@H](C)[C@@]25O)nc1C (stereo partly drawn) [BM] | 152.52
* CCCCC(OC(C)=O)c1ccccc1C(=O)O[C@H]1C(=O)O[C@H]2O[C@]34C(=O)OC5C[C@@H](C(C)(C)C)C21[C@@]53[C@@H](O)[C@@H]1OC(=O)[C@@H](C)[C@@]14O (stereo partly drawn) [BD] | 155.68
* Cc1nc(C)c(C(=O)O[C@H]2C(=O)O[C@H]3O[C@]45C(=O)OC6C[C@@H](C(C)(C)C)C32[C@@]64[C@@H](O)[C@@H]2OC(=O)[C@@H](C)[C@@]25O)nc1C (stereo partly drawn) [BZ] | 156.47
* CC1C(=O)OC2C(O)C34C5CC(C(C)(C)C)C36C(OC(=O)C6O)OC4(C(=O)O5)C12O (stereo not drawn) [GB, ginkgolide B] | 159.17
* CC(=O)Oc1ccccc1C(=O)O[C@H]1C(=O)O[C@H]2O[C@]34C(=O)OC5C[C@@H](C(C)(C)C)C21[C@@]53[C@@H](O)[C@@H]1OC(=O)[C@@H](C)[C@@]14O (stereo partly drawn) [BA] | 159.87
